tested on: zebrafish larvae; test: Zebrafish models of stress and anxiety, overall verdict (Light/Dark Stress Response and thigmotaxis); format: in vivo; details: vehicle 0.5% MeOH

{"compound": "COC1=CC(=O)O[C@@H](CCc2ccc3c(c2)OCO3)C1 [(+)-dihydro methysticin]", "Therapeutic Potential": "Yes"}
{"compound": "COC1=CC(=O)O[C@@H](CCc2ccccc2)C1 [(S)-(+)-7,8-dihydrokavain]", "Therapeutic Potential": "No"}
{"compound": "COc1ccc(/C=C/c2cc(OC)cc(=O)o2)cc1 [yangonin]", "Therapeutic Potential": "Yes"}
{"compound": "COC1=CC(=O)O[C@@H](/C=C/c2ccc3c(c2)OCO3)C1 [R-(+)-methysticin]", "Therapeutic Potential": "No"}
